Attribution: patent US20230117034A1

- testedTarget: CDK9/CycT1 (Homo sapiens, UniProt P50750)
- Construct: Recombinant full-length His-tagged human CDK9 and CycT1; purchased Life Technologies PV4131; host or cells: insect cells
- Sequence (P50750 whole entry): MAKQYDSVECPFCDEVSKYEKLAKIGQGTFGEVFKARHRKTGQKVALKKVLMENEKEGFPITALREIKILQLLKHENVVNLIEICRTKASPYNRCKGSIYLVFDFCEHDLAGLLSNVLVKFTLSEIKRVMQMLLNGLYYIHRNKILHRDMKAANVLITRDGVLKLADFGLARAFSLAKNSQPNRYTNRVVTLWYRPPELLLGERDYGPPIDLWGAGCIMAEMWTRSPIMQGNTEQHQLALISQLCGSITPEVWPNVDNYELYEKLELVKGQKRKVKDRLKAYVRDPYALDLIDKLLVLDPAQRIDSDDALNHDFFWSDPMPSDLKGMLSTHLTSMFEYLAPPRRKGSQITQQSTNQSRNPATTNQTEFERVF
- Sequence (O60563 whole entry partner): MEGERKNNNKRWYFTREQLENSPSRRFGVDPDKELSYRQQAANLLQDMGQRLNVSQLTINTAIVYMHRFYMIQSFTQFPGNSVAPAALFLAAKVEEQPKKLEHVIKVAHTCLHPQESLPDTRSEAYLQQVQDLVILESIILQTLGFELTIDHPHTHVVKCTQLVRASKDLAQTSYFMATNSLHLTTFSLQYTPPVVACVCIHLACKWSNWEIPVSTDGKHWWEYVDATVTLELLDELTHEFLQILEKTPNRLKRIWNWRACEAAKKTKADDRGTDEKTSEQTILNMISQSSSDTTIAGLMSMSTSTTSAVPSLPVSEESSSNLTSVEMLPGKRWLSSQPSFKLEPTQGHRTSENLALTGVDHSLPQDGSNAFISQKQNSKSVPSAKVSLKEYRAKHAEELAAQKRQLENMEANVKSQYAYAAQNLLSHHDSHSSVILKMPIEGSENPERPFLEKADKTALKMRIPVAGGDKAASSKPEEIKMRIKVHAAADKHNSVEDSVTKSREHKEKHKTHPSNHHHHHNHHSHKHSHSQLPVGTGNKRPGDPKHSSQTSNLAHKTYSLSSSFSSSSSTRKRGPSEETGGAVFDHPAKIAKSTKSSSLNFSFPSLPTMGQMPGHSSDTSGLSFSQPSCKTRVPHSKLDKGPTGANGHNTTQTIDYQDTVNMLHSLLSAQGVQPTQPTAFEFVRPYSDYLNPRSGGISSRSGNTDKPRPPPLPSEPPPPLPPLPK
- protocolDetails: CDK9/CycT1 high ATP kinase assay (TR-FRET, 2 mM ATP)
- Type: biochemical
- recordedConditions: 2 mM ATP (high ATP); median; read-out: CDK9/CyclinT1, 2 mM ATP (high ATP), IC50 (median)
resultType: IC50 (µM)

>>> reportedmeasurement("CN(CC(C)(C)O)c1nc(NCc2nc3c(F)c(F)ccc3[nH]2)n2ncc(Cl)c2n1")
7.13
>>> reportedmeasurement("CN(CC(C)(C)O)c1nc(NCc2nc3cc(F)c(Cl)cc3[nH]2)n2ncc(Br)c2n1")
8.3
>>> reportedmeasurement("CC(C)c1cnn2c(NCc3ncc(-c4ccccc4)[nH]3)nc(N(C)CC(C)(C)O)nc12")
9.15

I = C[C@H]1COCCN1c1nc(NCc2nc3ccccc3[nH]2)n2ncc(Br)c2n1
II = Brc1cnn2c(NCc3nnc(-c4ccccc4)[nH]3)nc(N3CCCC3)nc12
Identify the item whose IC50 is the smaller number: I or II Pick one and reply with its label.
II
(II: 3.56 µM, I: 6.67 µM)
